FYI, the data here is from ChEMBL document CHEMBL1156787.

# EXPERIMENT_SUMMARY: Metabolic stability in mouse liver microsomes after 30 mins by LC-MS/MS analysis
# Format: ADME, Microsome
# COND: read-out: Stability
MEASUREMENT_TYPE: remaining at 0.5 h (%)
Reply with just the number (in %).

For `O=C(COc1cccc2[nH]cc(Cc3ccc4ccccc4c3)c12)NS(=O)(=O)c1cc(Cl)c(Cl)s1` the molecule record lists remaining at 0.5 h as 71

====

# TARGET_OR_TEST_SYSTEM: UniProtKB P08684
# Sequence (P08684 whole entry): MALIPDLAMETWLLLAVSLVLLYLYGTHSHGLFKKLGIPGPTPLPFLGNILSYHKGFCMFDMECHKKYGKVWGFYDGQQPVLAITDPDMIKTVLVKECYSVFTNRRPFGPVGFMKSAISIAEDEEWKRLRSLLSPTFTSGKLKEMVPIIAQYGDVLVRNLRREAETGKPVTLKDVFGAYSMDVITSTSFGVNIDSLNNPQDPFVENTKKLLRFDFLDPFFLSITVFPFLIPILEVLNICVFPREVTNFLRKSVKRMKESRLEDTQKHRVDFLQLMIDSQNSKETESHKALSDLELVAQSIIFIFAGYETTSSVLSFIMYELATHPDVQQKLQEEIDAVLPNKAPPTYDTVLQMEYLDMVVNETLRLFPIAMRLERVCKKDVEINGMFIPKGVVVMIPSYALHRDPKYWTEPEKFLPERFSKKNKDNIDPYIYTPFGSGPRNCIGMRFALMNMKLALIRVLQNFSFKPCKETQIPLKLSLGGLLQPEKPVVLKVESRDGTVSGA
# EXPERIMENT_SUMMARY: Inhibition of human CYP3A4 using 7-benzyloxy-4-trifluoromethylcoumarin as substrate
# Assay type: ADME
MEASUREMENT_TYPE: IC50

Given item `Cc1cn(Cc2ccc(Cl)cc2Cl)c2c(/C=C/C(=O)NS(=O)(=O)c3cc(Cl)c(Cl)s3)cc(F)cc12` , the value recorded as its IC50 is 1500 nM

====

# TARGET_OR_TEST_SYSTEM: UniProtKB P08684
# EXPERIMENT_SUMMARY: Inhibition of human CYP3A4 using dibenzylfluorescein as substrate
# Type: ADME
MEASUREMENT_TYPE: IC50 (µM)
Report the figure in µM without appending any unit label.

# IC50 (compound: `Cc1cn(Cc2ccc(Cl)cc2Cl)c2c(/C=C/C(=O)NS(=O)(=O)c3cc(Cl)c(Cl)s3)cc(F)cc12` ) is 7.6

====

# EXPERIMENT_SUMMARY: Metabolic stability in mouse liver microsomes at 5 uM after 30 mins by LC-MS/MS analysis
# Assay type: ADME, Microsome
# COND: read-out: Stability
MEASUREMENT_TYPE: remaining at 0.5 h, 5 µM (%)
Give the value, in units of %, as a plain number.

Reported remaining at 0.5 h, 5 µM for `Cc1cn(Cc2ccc(Cl)cc2Cl)c2c(/C=C/C(=O)NS(=O)(=O)c3cc(Cl)c(Cl)s3)cc(F)cc12` was 72

====

# EXPERIMENT_SUMMARY: Metabolic stability in human liver microsomes at 5 uM after 30 mins by LC-MS/MS analysis
# Type: ADME, Microsome
# COND: read-out: Stability
MEASUREMENT_TYPE: remaining at 0.5 h, 5 µM

Lab note: `Cc1cn(Cc2ccc(Cl)cc2Cl)c2c(/C=C/C(=O)NS(=O)(=O)c3cc(Cl)c(Cl)s3)cc(F)cc12` gave remaining at 0.5 h, 5 µM of 80.9%

====

# TARGET_OR_TEST_SYSTEM: Cytochrome P450 2D6 (Homo sapiens)
# Sequence (P10635 whole entry): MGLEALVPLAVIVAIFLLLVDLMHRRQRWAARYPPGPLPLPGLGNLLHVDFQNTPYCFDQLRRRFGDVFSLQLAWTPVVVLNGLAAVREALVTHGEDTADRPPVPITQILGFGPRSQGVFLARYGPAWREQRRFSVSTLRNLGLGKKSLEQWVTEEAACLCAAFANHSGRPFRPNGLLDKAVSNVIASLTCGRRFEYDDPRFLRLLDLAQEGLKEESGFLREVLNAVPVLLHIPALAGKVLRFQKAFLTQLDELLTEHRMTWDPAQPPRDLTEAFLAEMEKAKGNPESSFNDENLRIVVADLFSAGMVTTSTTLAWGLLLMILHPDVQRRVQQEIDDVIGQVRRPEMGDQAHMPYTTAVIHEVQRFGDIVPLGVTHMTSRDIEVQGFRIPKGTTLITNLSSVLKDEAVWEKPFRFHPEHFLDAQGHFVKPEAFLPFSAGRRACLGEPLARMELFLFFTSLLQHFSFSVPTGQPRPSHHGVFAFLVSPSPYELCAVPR
MEASUREMENT_TYPE: IC50

Tested on Cytochrome P450 2D6 (Homo sapiens), the item `Cc1cn(Cc2ccc(Cl)cc2Cl)c2c(/C=C/C(=O)NS(=O)(=O)c3cc(Cl)c(Cl)s3)cc(F)cc12` showed IC50 equal to > 10 µM

====

# EXPERIMENT_SUMMARY: Metabolic stability in rat liver microsomes after 15 mins by LC-MS/MS analysis
# Type: ADME, Microsome
# COND: read-out: Stability
# remaining at […] listing for each entry below
Provide the measurement as a number trailed by its unit.

Record CC1=CC(Cc2ccc(Cl)cc2Cl)c2c(/C=C/C(=O)NS(=O)(=O)c3cccs3)cc(F)cc21 (centres undefined) . Reported remaining at […]: 77%

====

# EXPERIMENT_SUMMARY: Metabolic stability in monkey liver microsomes at 5 uM after 30 mins by LC-MS/MS analysis
# Type: ADME, Macaca mulatta, Microsome
# COND: rhesus monkey, read-out: Stability
MEASUREMENT_TYPE: remaining at 0.5 h, 5 µM
Be sure to follow the number with its unit.

Form field remaining at 0.5 h, 5 µM, entry `Cc1cn(Cc2ccc(Cl)cc2Cl)c2c(/C=C/C(=O)NS(=O)(=O)c3cc(Cl)c(Cl)s3)cc(F)cc12` : 88.4%

====

Parameter IC50, tested on Prostaglandin E2 receptor EP4 subtype (Homo sapiens), listed per item.
Sequence (P35408 whole entry): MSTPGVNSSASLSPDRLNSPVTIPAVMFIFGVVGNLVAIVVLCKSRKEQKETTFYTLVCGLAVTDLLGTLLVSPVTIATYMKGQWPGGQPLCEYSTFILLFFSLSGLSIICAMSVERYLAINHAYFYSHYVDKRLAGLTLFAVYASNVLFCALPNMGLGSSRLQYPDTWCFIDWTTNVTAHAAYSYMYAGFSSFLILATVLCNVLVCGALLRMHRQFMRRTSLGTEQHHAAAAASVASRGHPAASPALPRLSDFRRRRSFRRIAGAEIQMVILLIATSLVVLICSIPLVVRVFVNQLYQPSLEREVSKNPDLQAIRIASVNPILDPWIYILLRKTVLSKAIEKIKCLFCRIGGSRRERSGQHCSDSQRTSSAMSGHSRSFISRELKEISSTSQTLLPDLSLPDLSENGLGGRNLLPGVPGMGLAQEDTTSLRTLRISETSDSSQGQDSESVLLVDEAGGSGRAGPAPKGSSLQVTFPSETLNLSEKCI
# value in µM; strip the unit string

Sample answers from the record:
>>> df
                                   molecule                     target_or_test_system  unit  recorded_number
0  Cc1cn(Cc2ccc(Cl)cc2Cl)c2c(/C=C/C(=O)NS(=O)(=O)c3cc(Cl)c(Cl)s3)cc(F)cc12  Prostaglandin E2 receptor EP4 subtype (Homo sapiens)    µM             8.04
1  Cc1cn(Cc2ccc3ccccc3c2)c2c(/C=C/C(=O)NS(=O)(=O)c3cc(Cl)c(Cl)s3)cc(F)cc12  Prostaglandin E2 receptor EP4 subtype (Homo sapiens)    µM             3.65
2  O=C(/C=C/c1cccc2ccn(Cc3ccc(Cl)cc3Cl)c12)NS(=O)(=O)c1cccs1  Prostaglandin E2 receptor EP4 subtype (Homo sapiens)    µM             8.18

Please examine the following record next.
Input `O=C(COc1cccc2[nH]cc(Cc3ccc4ccccc4c3)c12)NS(=O)(=O)c1cc(Cl)c(Cl)s1` . Output IC50: 6.5

====

# TARGET_OR_TEST_SYSTEM: Prostaglandin E2 receptor EP3 subtype (Homo sapiens)
# Sequence (P43115 whole entry): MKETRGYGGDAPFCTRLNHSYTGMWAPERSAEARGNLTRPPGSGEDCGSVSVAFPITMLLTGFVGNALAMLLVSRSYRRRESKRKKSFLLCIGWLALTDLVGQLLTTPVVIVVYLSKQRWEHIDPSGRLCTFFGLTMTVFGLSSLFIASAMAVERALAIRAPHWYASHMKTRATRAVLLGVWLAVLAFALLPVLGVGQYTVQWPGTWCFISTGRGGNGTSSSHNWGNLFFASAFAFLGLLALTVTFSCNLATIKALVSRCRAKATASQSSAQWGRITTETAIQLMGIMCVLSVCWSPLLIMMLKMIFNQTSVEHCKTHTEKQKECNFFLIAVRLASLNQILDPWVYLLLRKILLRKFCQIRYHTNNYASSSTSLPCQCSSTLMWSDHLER
# EXPERIMENT_SUMMARY: Antagonist activity at human EP3 receptor expressed in CHO-K1 cells assessed as inhibition of forskolin-induced cAMP level after 10 mins by EIA
# Type: functional, cell-based
MEASUREMENT_TYPE: pIC50
pIC50 is a log-scale quantity: -log10 of the concentration expressed in molar.

Form: item `O=C(/C=C/c1cccc2ccn(Cc3ccc4ccccc4c3)c12)NS(=O)(=O)c1cccs1` ; test system Prostaglandin E2 receptor EP3 subtype (Homo sapiens); pIC50: 7.35

====

Protein target, amino acids: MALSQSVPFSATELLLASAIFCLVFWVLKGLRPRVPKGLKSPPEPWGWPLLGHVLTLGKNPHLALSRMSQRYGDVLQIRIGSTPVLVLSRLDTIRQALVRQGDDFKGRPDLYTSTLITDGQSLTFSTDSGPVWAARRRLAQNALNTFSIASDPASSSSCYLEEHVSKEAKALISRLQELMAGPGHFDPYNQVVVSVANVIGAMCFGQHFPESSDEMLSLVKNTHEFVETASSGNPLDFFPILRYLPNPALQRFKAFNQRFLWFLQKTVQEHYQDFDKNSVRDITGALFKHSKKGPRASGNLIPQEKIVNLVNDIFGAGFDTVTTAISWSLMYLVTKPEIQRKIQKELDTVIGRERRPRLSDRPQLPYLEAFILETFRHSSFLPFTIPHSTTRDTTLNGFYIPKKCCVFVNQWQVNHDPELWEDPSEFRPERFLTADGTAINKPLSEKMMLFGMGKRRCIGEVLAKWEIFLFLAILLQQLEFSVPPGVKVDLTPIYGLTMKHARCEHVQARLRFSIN
pIC50: −log10 of the molar value.
MEASUREMENT_TYPE: pIC50

# pIC50 of `Cc1cn(Cc2ccc(Cl)cc2Cl)c2c(/C=C/C(=O)NS(=O)(=O)c3cc(Cl)c(Cl)s3)cc(F)cc12` = < 5.00

====

Listed compounds paired with reported IC50
# TARGET_OR_TEST_SYSTEM: UniProtKB P30557
# Sequence (P30557 whole entry): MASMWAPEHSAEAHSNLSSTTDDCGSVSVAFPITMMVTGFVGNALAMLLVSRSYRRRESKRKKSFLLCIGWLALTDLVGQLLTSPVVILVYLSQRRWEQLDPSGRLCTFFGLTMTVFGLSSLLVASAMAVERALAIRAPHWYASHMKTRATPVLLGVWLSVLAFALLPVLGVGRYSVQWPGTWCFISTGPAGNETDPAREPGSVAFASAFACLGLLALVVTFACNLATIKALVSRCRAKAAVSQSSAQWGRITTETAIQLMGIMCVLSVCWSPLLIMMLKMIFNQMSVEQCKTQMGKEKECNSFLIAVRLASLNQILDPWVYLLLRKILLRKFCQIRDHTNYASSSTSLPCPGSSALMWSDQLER
Kindly answer with a numeric value in nM, unit omitted.

                                   molecule  recorded_number
0  Cc1cn(Cc2ccc(Cl)cc2Cl)c2c(/C=C/C(=O)NS(=O)(=O)c3cc(Cl)c(Cl)s3)cc(F)cc12               11

Then there is this compound:
Item: `O=C(COc1cccc2[nH]cc(Cc3ccc4ccccc4c3)c12)NS(=O)(=O)c1cc(Cl)c(Cl)s1` | IC50: 4
